assay: clinical; conditions: human, in vivo, α phase half-life for elimination from sputum
readout-name: half-life

Exercise: Entry under review: N=C(N)c1ccc(OCCCCCOc2ccc(C(=N)N)cc2)cc1 . Reported half-life?
Key: 2.2 to 2.6 h

###

test: clinical; conditions: human, in vivo, 70 mg/4 ml, T1/2 (a), CF sputum; Aerogen Clinical, high dose; a phase 0-8 hours; Mean
readout-name: half-life (h)
Numeric answer only, unit h assumed.

Exercise: Entry under review: N=C(N)c1ccc(OCCCCCOc2ccc(C(=N)N)cc2)cc1 . Reported half-life?
Key: 2.2

###

experiment: clinical; details: human, in vivo
readout-name: concentration at 7 day

Exercise: Entry under review: N=C(N)c1ccc(OCCCCCOc2ccc(C(=N)N)cc2)cc1 . Reported concentration at 7 day?
Key: ≤ 110 ng/mL

This collection of values is drawn from patent US7947741B2.
